STUDY SYSTEM: Heat shock factor protein 1 (Homo sapiens)
ASSAY INFO: ATG_HSE_CIS: Attagene CIS-FACTORIAL HepG2 Assay for human Heat Shock Transcription Factor 1 (HSE) (AID 2282953)
RUN CONDITIONS: HepG2 HSE cis-reporter, Attagene RNA transcription; actives raise or lower the signal
Activity calls are given as the source filed them. Rule for the calls: active = hit-call score of the fitted dose curve at least 0.9, where 1 is the maximum; inactive = score below 0.9.
# output must be one of active, inactive

Recorded results for 6 compounds are shown here.
>  <COMPOUND>
OC1CCCCCCCCCCC1

>  <CAT>
inactive

$$$$
>  <COMPOUND>
C=CC(C)(CCC=C(C)C)OC(=O)C(C)C (stereo not given)

>  <CAT>
inactive

$$$$
>  <COMPOUND>
CC[C@H]1OC(=O)[C@H](C)[C@@H](O[C@H]2C[C@@](C)(OC)[C@@H](O)[C@H](C)O2)[C@H](C)[C@@H](O[C@@H]2O[C@H](C)C[C@H](N(C)C)[C@H]2O)[C@](C)(O)C[C@@H](C)C(=NOCOCCOC)[C@H](C)[C@@H](O)[C@]1(C)O

>  <CAT>
inactive

$$$$
>  <COMPOUND>
CC=CC(=O)N(CC)c1ccccc1C

>  <CAT>
inactive

$$$$
>  <COMPOUND>
SCCc1cnccn1

>  <CAT>
inactive

$$$$
>  <COMPOUND>
CC(=O)Oc1ccc(C)cc1

>  <CAT>
inactive

$$$$

Enquiry: Hi, sorry to bother you, what did the test record for `c1ccc(CCCc2ccncc2)cc1` ?
Return: active

Enquiry: And `C=CC(=O)OCCOC(=O)C=C` ?
Return: inactive

Enquiry: Now consider `C=C(C)C(=O)OCCOc1ccccc1` and answer again.
Return: inactive

Enquiry: Follow-up item: CC(C)=CC1CC(C)CCO1 (stereo not given)
Return: inactive

Enquiry: And for `Cc1ccc(N/N=c2\c(=O)cc/c(=N/Nc3ccc(S(=O)(=O)O)cc3)c2=O)c(C)c1` ?
Return: inactive

Enquiry: Entry `COC(=O)c1ccc2cc(C(=O)OC)ccc2c1` please
Return: inactive

Enquiry: Moving on to the next compound: `NNC(=O)c1cccc(C(=O)NN)c1`
Return: inactive

Enquiry: Okay, and `CCCCCCCCCCc1ccccc1` ?
Return: inactive

Enquiry: Same lookup for `CCCCCCOc1cc(C)c(O)c(C)c1C` , please.
Return: inactive

Enquiry: And for `CC(C)c1ccc2c(c1)CC[C@H]1[C@](C)(CN)CCC[C@]21C` ?
Return: active

* * *

STUDY SYSTEM: Hepatocyte nuclear factor 3-beta (Homo sapiens)
ASSAY INFO: ATG_FoxA2_CIS: Attagene CIS-FACTORIAL HepG2 Assay for human Forkhead box A2 (FOXA2) (AID 2282942)
RUN CONDITIONS: HepG2 cis-reporter transcription factor activity, 24 h; actives raise or lower the signal
Active and inactive are the calls of the source. How the source made its calls: active means hit-call score of the fitted dose curve at least 0.9, where 1 is the maximum; inactive means score below 0.9.
Could you please pick one outcome from this set? 1 (yes) for active, 0 (no) for inactive

Field: example entries. Status: answers known.
>  <MOLECULE>
N#CCc1ccc(Cl)cc1Cl

>  <CAT>
0 (no)

$$$$
>  <MOLECULE>
CC(=O)OC(C)C

>  <CAT>
0 (no)

$$$$

Enquiry: Returns: the outcome recorded for `CCN(CC#N)c1cccc(C)c1` in this assay.
Return: 0 (no)

Enquiry: Next up: CO[Si](CCC1CCC2OC2C1)(OC)OC (stereo unspecified)
Return: 0 (no)

Enquiry: And the next one, `CCCCCCCCCCCCCCCC(=O)OCC` ?
Return: 0 (no)

Enquiry: Field entry: `CC1(C)S[C@@H]2[C@H](NC(=O)COc3ccccc3)C(=O)N2[C@H]1C(=O)O`
Return: 0 (no)

Enquiry: Thanks! And C=CCOCC(O)CCl (stereo unspecified) ?
Return: 0 (no)

Enquiry: Next up: `CCN(Cc1cccc(S(=O)(=O)O)c1)c1ccc(C(=C2C=CC(=[N+](CC)Cc3cccc(S(=O)(=O)[O-])c3)C=C2)c2ccccc2)cc1`
Return: 0 (no)

Enquiry: Next record, please: `COc1ccc(-c2coc3cc(O)ccc3c2=O)cc1`
Return: 0 (no)

Enquiry: What about this molecule? `COC(=O)c1ccccc1OC`
Return: 0 (no)

Enquiry: Next up: O=C(OCC1CCC2OC2C1)C1CCC2OC2C1 (stereo unspecified)
Return: 0 (no)

Enquiry: Proceed to `CC=CC(F)(F)C(F)(F)C(F)(F)F`
Return: 0 (no)

Enquiry: Can you check Cc1ccc(C2OC[C@@H]3OC(c4ccc(C)cc4)O[C@H]([C@H](O)CO)[C@@H]3O2)cc1 (stereo partly specified) next?
Return: 0 (no)

Enquiry: Can you check `O=C1c2ccccc2C(=O)C1c1nc2ccccc2c(Br)c1O` next?
Return: 1 (yes)

Enquiry: Item: `CC(C)CCCCCOC(=O)CCS`
Return: 0 (no)

Enquiry: CC(=O)OC1C2(C)CCC(C2)C1(C)C (stereo unspecified) , same question.
Return: 0 (no)

Enquiry: Please give the result for `C=C1[C@H]2CC[C@@H]3[C@H]2C(C)(C)CCC[C@]13C` too.
Return: 0 (no)

Enquiry: Param item: `Cn1c([N+](=O)[O-])cnc1COC(N)=O`
Return: 0 (no)

Enquiry: Next molecule up: CCCCC(CC)COCC1CO1 (stereo unspecified)
Return: 0 (no)

Enquiry: Record: `Cc1cccc(N(C)C(=S)Oc2ccc3ccccc3c2)c1`
Return: 0 (no)

Enquiry: What about this molecule? `Clc1nc2ccccc2s1`
Return: 0 (no)

Enquiry: Same for `C=CC(=O)OCCOC(=O)C=C`
Return: 0 (no)

Enquiry: Query COC(=O)C1=C(C)NC(C)=C(C(=O)OCC(C)C)C1c1ccccc1[N+](=O)[O-] (stereo unspecified) next
Return: 0 (no)

Enquiry: Queued: `C=CC(C)(C)C`
Return: 0 (no)

Enquiry: Field entry: `O=C(Nc1cccc(C(F)(F)F)c1)c1cc(Br)cc(Br)c1O`
Return: 0 (no)

Enquiry: Okay, and `O=C1CCCC1` ?
Return: 0 (no)
